target: EPHB4 (Homo sapiens, UniProt P54760)
Sequence (P54760 16-987, species assumed): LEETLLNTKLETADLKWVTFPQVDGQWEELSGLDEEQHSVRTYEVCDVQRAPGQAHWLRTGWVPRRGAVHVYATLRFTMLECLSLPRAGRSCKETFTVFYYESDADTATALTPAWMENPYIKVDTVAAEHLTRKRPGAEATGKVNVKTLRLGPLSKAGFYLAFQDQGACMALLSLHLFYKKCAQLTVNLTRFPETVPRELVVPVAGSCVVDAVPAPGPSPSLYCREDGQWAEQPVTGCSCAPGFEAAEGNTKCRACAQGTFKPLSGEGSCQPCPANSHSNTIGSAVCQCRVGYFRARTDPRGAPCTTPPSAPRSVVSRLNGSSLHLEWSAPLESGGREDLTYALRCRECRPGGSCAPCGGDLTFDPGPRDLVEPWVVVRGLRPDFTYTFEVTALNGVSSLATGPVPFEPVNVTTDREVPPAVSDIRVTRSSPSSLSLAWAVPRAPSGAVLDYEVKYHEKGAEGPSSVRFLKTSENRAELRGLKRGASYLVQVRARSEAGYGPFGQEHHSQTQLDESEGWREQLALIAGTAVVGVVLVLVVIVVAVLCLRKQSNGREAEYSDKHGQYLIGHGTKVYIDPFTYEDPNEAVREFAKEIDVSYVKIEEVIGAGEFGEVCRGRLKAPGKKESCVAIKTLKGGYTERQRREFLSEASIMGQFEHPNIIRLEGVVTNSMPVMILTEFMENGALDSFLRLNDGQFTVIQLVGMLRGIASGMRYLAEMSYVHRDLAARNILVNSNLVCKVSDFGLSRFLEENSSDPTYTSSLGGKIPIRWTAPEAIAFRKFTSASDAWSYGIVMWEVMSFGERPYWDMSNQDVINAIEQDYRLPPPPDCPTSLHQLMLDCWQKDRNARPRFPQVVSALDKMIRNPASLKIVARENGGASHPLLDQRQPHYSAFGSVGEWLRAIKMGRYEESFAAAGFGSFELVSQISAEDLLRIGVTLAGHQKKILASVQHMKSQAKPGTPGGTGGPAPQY
pIC50: −log10 of the molar value.
READOUT NAME: pIC50

Request: Can you look up the measured pIC50 of NC(N)=NCCC[C@H](NCN1CCN(C(=O)c2cc(Cc3n[nH]c(=O)c4ccccc34)ccc2F)CC1)C(=O)O for me?
Result: < 5.00

* * *

target: BMX (Homo sapiens)
Sequence (P51813 whole entry): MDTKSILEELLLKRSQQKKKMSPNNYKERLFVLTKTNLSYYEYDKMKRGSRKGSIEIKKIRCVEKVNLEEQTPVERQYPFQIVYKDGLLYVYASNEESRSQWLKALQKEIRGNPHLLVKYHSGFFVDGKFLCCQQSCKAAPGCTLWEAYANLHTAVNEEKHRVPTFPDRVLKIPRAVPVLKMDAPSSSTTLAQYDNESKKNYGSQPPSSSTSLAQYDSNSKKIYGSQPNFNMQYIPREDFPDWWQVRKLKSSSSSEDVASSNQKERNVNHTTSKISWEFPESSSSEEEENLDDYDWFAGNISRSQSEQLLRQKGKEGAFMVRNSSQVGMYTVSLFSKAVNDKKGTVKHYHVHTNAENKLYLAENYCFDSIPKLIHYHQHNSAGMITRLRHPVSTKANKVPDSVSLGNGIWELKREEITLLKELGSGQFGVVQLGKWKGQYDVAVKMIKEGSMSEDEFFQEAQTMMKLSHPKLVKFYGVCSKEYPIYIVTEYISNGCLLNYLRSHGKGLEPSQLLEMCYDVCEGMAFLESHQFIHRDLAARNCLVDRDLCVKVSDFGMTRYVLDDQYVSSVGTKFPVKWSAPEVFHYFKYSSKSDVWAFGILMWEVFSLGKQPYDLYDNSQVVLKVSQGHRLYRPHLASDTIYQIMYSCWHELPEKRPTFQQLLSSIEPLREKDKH
pIC50: −log10 of the molar value.
READOUT NAME: pIC50

Request: Can you look up the measured pIC50 of NC(N)=NCCC[C@H](NCN1CCN(C(=O)c2cc(Cc3n[nH]c(=O)c4ccccc34)ccc2F)CC1)C(=O)O [PPNR-4] for me?
Result: < 5.00
